Provenance of the data: patent US20160200799A1

assay.target: Influenza virus A/Brisbane/59/2007 (H1N1) (Influenza A virus A/Brisbane/59/2007 (H1N1))
protocol: cell-based or functional assay
Measured Neutralizing activity (%) at 100 µg/ml values are reported for all entries that follow.
Quick note: give the figure in %, leave out the unit.

- binder: "Group 2 representative clone F082-220, Fab-PP-type antibody (Fab, V domains shown) VH: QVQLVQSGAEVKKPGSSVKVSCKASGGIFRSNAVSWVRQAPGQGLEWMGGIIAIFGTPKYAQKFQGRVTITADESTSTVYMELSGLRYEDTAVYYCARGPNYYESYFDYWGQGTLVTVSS VL: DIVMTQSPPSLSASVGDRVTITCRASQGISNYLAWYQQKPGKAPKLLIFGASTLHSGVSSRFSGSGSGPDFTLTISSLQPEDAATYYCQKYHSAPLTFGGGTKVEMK"
  measured: 100
- binder: "Group 3 representative clone F081-281, Fab-PP-type antibody (Fab, V domains shown) VH: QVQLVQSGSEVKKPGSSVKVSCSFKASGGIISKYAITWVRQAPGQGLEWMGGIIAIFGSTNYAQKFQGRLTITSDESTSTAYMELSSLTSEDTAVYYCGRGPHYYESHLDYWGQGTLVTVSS VL: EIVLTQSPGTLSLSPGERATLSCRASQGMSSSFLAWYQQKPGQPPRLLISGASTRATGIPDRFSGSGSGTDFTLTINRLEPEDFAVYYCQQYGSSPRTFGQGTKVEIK"
  measured: 98
- binder: "Group 48 representative clone F083-389, Fab-PP-type antibody (Fab, V domains shown) VH: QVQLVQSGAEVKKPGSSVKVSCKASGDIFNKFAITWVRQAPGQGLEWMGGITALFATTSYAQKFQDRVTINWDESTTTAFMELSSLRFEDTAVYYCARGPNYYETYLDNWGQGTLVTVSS VL: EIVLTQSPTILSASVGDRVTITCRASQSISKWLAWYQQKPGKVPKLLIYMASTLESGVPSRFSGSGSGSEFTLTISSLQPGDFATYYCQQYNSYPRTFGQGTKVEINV"
  measured: 98
- binder: "Group 1 representative clone F080-227, Fab-PP-type antibody (Fab, V domains shown) VH: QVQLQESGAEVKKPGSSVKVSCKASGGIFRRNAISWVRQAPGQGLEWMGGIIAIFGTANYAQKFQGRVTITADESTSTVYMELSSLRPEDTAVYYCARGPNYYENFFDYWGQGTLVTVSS VL: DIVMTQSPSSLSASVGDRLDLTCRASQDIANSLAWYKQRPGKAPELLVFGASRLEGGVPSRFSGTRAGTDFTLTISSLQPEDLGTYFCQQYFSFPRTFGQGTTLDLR"
  measured: 96

Here's the next entry for you.
input: I would be grateful if you could share the reported Neutralizing activity (%) at 100 µg/ml for Group 35 representative clone F082-117, Fab-PP-type antibody (Fab, V domains shown) VH: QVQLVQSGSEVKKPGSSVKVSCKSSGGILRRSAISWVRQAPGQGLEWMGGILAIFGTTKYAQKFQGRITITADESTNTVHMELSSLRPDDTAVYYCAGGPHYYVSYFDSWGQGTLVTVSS VL: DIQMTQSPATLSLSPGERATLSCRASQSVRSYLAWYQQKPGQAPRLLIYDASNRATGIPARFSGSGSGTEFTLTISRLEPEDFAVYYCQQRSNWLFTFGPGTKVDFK .
output: 100
